- testName: Quantitative highthroughput screen to assess conditional lethalithy of P12 Ichikawa cells grown in RPMI1640 with untreated serum (RPMI+s) (AID 1963881); further: nearly all actives have a fitted effect of over 35% in size; further: potency means the concentration at half of the fitted maximal effect;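 on viability: 100% = DMSO wells and 0% = empty wells without cells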
- details: ATP luminescence, 48 h; viability; series mostly up to 45.8 µM
- Description: Assay Provider: Jason Cantor Ph.D. Department of Biochemistry University of Wisconsin-Madison, Madison, WI, USA Chemical screening studies have identified drug sensitivities across hundreds of cancer cell lines but most putative therapeutics fail to translate. […] Sets of conditional anticancer compounds spanned phases of clinical development and included non-oncology drugs were assessed. […] 6; Detection; Luminescence, Viewlux PerkinElmer. […]
Inconclusive results are not listed. Activity calls are given as the source filed them. The call rests on the fitted dose curve; in most records, active means well fitted cell-killing curve with a large enough effect; inconclusive means small, poorly fitted or top-dose-only effect; inactive means flat fitted curve, though single readings scatter.
measureName: Potency

molecule: CN1C(=O)C[C@H](C(=O)N[C@@H](Cc2cnc[nH]2)C(=O)N2CCC[C@@H]2C(N)=O)NC1=O
endpointValue: inactive
--
molecule: CC1(O)CC(c2nc(-c3ccc4ccc(-c5ccccc5)nc4c3)c3c(N)nccn23)C1 (stereo unspecified)
endpointValue: 4.69 µM (active)
--
molecule: Cc1ccc(CN2CCNCC2)cc1NC(=O)CNc1ccc(F)c(F)c1
endpointValue: inactive
--
molecule: O=C(C=Cc1cccc(S(=O)(=O)Nc2ccccc2)c1)NO
endpointValue: 4.29 µM (active)

Fill blank: measured Potency of the molecule COc1cc(C)c(C=CC(C)=CC=CC(C)=CC(=O)O)c(C)c1C is ____.
inactive

Fill blank: measured Potency of the molecule N=C1SC(=Cc2ccc(-c3ccc4c(c3)C(=O)NC4=O)o2)C(=O)N1c1ccc(Br)cc1 is ____.
inactive

###

- testName: Cellular viability qHTS for adrenocortical cancer (ACC) cell line SW-13 (AID 1963989);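 further: cells grown in serum-free medium with ITS supplement; on the % scale 0 is the no-effect control and ±100 the full control effect; nearly all actives have a fitted effect of over 65% in size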
- details: SW-13 ACC cells viability, CellTiter-Glo, 48 h; stronger effect = lower value
Records with an inconclusive call do not appear.
measureName: activity (max response) (%)
Numeric answer only, unit % assumed.

Fill blank: measured activity (max response) of the compound CC(C)(N)C(=O)N[C@H](COCc1ccccc1)C(=O)N1CCC2(CC1)CN(S(C)(=O)=O)c1ccccc12 is ____.
-9.29

Fill blank: measured activity (max response) of the compound CCCCCCCCCC(=O)N[C@@H](Cc1c[nH]c2ccccc12)C(=O)N[C@H](CC(N)=O)C(=O)N[C@@H](CC(=O)O)C(=O)N[C@@H]1C(=O)NCC(=O)N[C@@H](CCCN)C(=O)N[C@@H](CC(=O)O)C(=O)N[C@H](C)C(=O)N[C@@H](CC(=O)O)C(=O)NCC(=O)N[C@H](CO)C(=O)N[C@@H]([C@@H](C)CC(=O)O)C(=O)N[C@@H](CC(=O)c2ccccc2N)C(=O)O[C@@H]1C is ____.
12.9

Fill blank: measured activity (max response) of the compound NC(=O)c1ccc2[nH]ccc2c1 is ____.
-8.13

Fill blank: measured activity (max response) of the compound CCCCCCCCCCCCCC(=O)OC(C)C is ____.
6.54

Fill blank: measured activity (max response) of the compound CC1(C)S[C@@H]2[C@H](NC(=O)Cc3ccccc3)C(=O)N2[C@H]1C(=O)O (tested in a mixture with another compound) is ____.
7.44

Fill blank: measured activity (max response) of the compound COc1cc(O)cc(O)c1 is ____.
-2.38

Fill blank: measured activity (max response) of the compound CCOC(=O)C1=C(N)Oc2ccc(Br)cc2C1C(C#N)C(=O)OCC (stereo not drawn) is ____.
-2.87

Fill blank: measured activity (max response) of the compound CCC(C)N(C)C(=O)c1cc2ccccc2c(-c2ccccc2Cl)n1 (stereo not drawn) is ____.
-6.79

Fill blank: measured activity (max response) of the compound CNC(=O)[C@H]1O[C@@H](n2cnc3c(NCc4cccc(I)c4)nc(Cl)nc32)[C@H](O)[C@@H]1O is ____.
2.68

Fill blank: measured activity (max response) of the compound CN1CC(=O)N/C1=N/C(=O)Nc1cccc(Cl)c1 is ____.
2.23

Fill blank: measured activity (max response) of the compound CCN(CC)CCOc1ccc(Cc2ccccc2)cc1 is ____.
-24

Fill blank: measured activity (max response) of the compound CCCCOC(=O)CC(CC(=O)OCCCC)(OC(C)=O)C(=O)OCCCC is ____.
12.7

Fill blank: measured activity (max response) of the compound COc1ccc(C2(C#N)CCC(C(=O)O)CC2)cc1OC1CCCC1 (stereo not drawn) is ____.
2.89

Fill blank: measured activity (max response) of the compound CN1CCC(OC(c2ccccc2)c2ccccc2)CC1 is ____.
0.851

Fill blank: measured activity (max response) of the compound CCNC(=O)CCC/C=C\C[C@@H]1[C@@H](/C=C/C(O)CCc2ccccc2)[C@@H](O)C[C@@H]1O (stereo partly drawn) is ____.
-10.9

Fill blank: measured activity (max response) of the compound COCc1c(-c2ccc(NC(=O)Nc3cc(C(F)(F)F)ccc3F)c(F)c2)c2c(N)ncnn2c1CN1CCOCC1 is ____.
-5.64

Fill blank: measured activity (max response) of the compound CCOC(=O)c1ccccc1O is ____.
-1.17

Fill blank: measured activity (max response) of the compound CC1=NS(=O)(=O)c2cc(Cl)ccc2N1 is ____.
8.23

Fill blank: measured activity (max response) of the compound O=c1oc2c(C3OCCCO3)c(O)ccc2c2c1CNCC2 is ____.
5.04

Fill blank: measured activity (max response) of the compound O=C1c2ccccc2CCc2ccccc21 is ____.
4.16

Fill blank: measured activity (max response) of the compound COc1ccccc1N1CCN(CC(O)COc2cccc3ccccc23)CC1 (stereo not drawn) is ____.
-10.8

Fill blank: measured activity (max response) of the compound CC1(C)O[C@@H]2C[C@H]3[C@@H]4CCC5=CC(=O)C=C[C@]5(C)[C@H]4[C@@H](O)C[C@]3(C)[C@]2(C(=O)CO)O1 is ____.
-6.19

Fill blank: measured activity (max response) of the compound CN1[C@@H]2CC[C@H]1CC(OC(=O)c1c[nH]c3ccccc13)C2 (stereo partly drawn) is ____.
-7.55

Fill blank: measured activity (max response) of the compound NS(=O)(=O)c1cc(Cl)c(Cl)c(S(N)(=O)=O)c1 is ____.
-6.34

Fill blank: measured activity (max response) of the compound Cc1cc(NC(=O)Nc2ccc(N(C)C)cc2)c2cc(F)cc(F)c2n1 is ____.
-2.18

Fill blank: measured activity (max response) of the compound Cc1ccc(-c2ncn(-c3ccc(Nc4nccc(-c5cccc(N6CCOCC6)c5)n4)cc3)n2)cn1 is ____.
11.5

Fill blank: measured activity (max response) of the compound Cc1c(C)c2c(c(C)c1OC(=O)c1cccnc1)CC[C@@](C)(CCC[C@H](C)CCC[C@H](C)CCCC(C)C)O2 is ____.
-0.414

Fill blank: measured activity (max response) of the compound Cc1cc(C)c2c(c1)[C@@H](N(Cc1cc(C(F)(F)F)cc(C(F)(F)F)c1)c1nnn(C)n1)CCCN2CC1CCC(C(=O)O)CC1 (stereo partly drawn) is ____.
-23.9

Fill blank: measured activity (max response) of the compound O=NN(CCCl)C(=O)NCCCl is ____.
15.2

Fill blank: measured activity (max response) of the compound CN(C)c1ccc2cc(C(=O)N[C@@H](CCCN=C(N)CCl)C(=O)NCc3ccccc3)ccc2c1 is ____.
-6.76

Fill blank: measured activity (max response) of the compound C[C@@H]1CC[C@@]2(OC1)O[C@H]1C[C@H]3[C@@H]4CC[C@H]5C[C@@H](O)CC[C@]5(C)[C@H]4CC(=O)[C@]3(C)[C@H]1[C@@H]2C is ____.
5.1

Fill blank: measured activity (max response) of the compound Cn1cc(C[C@@H](N)C(=O)O)c2ccccc21 is ____.
-6.77

Fill blank: measured activity (max response) of the compound O=C(O)C1=CO[C@@H](O[C@@H]2O[C@H](CO)[C@@H](O)[C@H](O)[C@H]2O)[C@@H]2C(CO)=CC[C@H]12 is ____.
7.35

Fill blank: measured activity (max response) of the compound COc1ccc(C(=O)N2CCN(C(=O)/C=C/c3ccc(Br)cc3)CC2)cc1 is ____.
-12.8

Fill blank: measured activity (max response) of the compound Cc1cc(C)cc(OCC2CNC(=O)O2)c1 (stereo not drawn) is ____.
4.02

Fill blank: measured activity (max response) of the compound CCCCCN(CCCOC)C(=O)C(CCC(=O)O)NC(=O)c1ccc(Cl)c(Cl)c1 (stereo not drawn) is ____.
5.62

Fill blank: measured activity (max response) of the compound Cc1c(CCOc2ccc(C(=O)O)cc2)c2cc(Cl)ccc2n1C(c1ccccc1)c1ccccc1 is ____.
-0.782

Fill blank: measured activity (max response) of the compound NCCc1ccn[nH]1 is ____.
3.59

###

- system: Cytochrome P450 3A7 (Homo sapiens) (UniProt P24462)
- Sequence (P24462 whole entry, looked up): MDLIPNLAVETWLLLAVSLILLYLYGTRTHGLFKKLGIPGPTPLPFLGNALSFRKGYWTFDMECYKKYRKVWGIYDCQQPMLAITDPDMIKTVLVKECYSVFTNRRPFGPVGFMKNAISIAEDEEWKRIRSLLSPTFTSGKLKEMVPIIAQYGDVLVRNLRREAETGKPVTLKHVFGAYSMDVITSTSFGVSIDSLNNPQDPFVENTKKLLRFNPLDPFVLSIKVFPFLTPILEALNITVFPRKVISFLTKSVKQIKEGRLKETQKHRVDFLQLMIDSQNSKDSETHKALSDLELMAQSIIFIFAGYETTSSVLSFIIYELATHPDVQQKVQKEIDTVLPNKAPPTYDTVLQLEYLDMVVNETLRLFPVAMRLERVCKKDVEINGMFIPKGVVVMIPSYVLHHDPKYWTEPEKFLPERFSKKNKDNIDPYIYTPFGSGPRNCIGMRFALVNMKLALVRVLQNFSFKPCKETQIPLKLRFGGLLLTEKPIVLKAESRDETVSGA
- testName: Cytochrome P450 family 3 subfamily A member 7 (CYP3A7) small molecule antagonists: luciferase biochemical qHTS assay (AID 1963596); further: nearly all actives have a fitted effect of over 40% in size
- details: P450-Glo CYP3A7 enzyme luminescence, 1 h; series mostly up to 57.4 µM
- From the text: National Center for Advancing Translational Sciences [NCATS] Assay Overview: Cytochrome P450 (CYP) enzymes are membrane-bound hemeproteins that play a key role in metabolism of drugs and xenobiotics. […] The luciferin products formed are detected with a luciferin detection reagent, and the amount of light produced is proportional to CYP activity. […]
Inconclusive results are not listed. Active and inactive are the calls of the source. Calls come from the whole dose curve; as a rule, active = well fitted inhibition curve with a large enough effect; inconclusive = small, poorly fitted or top-dose-only effect; inactive = no such curve, though single readings can be large or run the other way.
Permitted responses: active, inactive

Identify the outcome logged in this assay for the compound shown: CCc1ccc(C(=O)C(C)CN2CCCCC2)cc1 (stereo not given)
active

Identify the outcome logged in this assay for the compound shown: NS(=O)(=O)c1cc(Cl)c(Cl)c(S(N)(=O)=O)c1
inactive

Identify the outcome logged in this assay for the compound shown: CN(C)CCOC(c1ccc(Cl)cc1)c1ccccn1 (stereo not given)
inactive

Identify the outcome logged in this assay for the compound shown: CCN(CC)CCNC(=O)c1cc(Cl)c(N)cc1OC
inactive

Identify the outcome logged in this assay for the compound shown: O=C(Cn1c2ccccc2c2nc3n(c(=O)c21)CCS3)N1CCCC1
inactive

Identify the outcome logged in this assay for the compound shown: CN1CCN(c2c(F)cc3c(=O)c(C(=O)O)cn4c3c2SCC4)CC1
inactive

Identify the outcome logged in this assay for the compound shown: CC1(C)CC(NC(=O)C(=O)Nc2ccc(Cl)cc2)CC(C)(C)N1
inactive

Identify the outcome logged in this assay for the compound shown: Cn1c(=O)c2c(ncn2CC2OCCO2)n(C)c1=O
inactive

Identify the outcome logged in this assay for the compound shown: O=C1CSc2ccccc2N1Cc1cccc(C(F)(F)F)c1
inactive

Identify the outcome logged in this assay for the compound shown: CC(N)CCCC(C)(C)O (stereo not given)
inactive

Identify the outcome logged in this assay for the compound shown: CCCCNc1ncc(-c2ccc(CN3CCOCC3)cn2)c(NC2CCC(O)CC2)n1 (stereo not given)
inactive

Identify the outcome logged in this assay for the compound shown: O=C(O)c1ccccc1S
inactive

Identify the outcome logged in this assay for the compound shown: CCCCCCCCCCCCCCCCCCO
inactive

Identify the outcome logged in this assay for the compound shown: Cc1nn(Cc2ccccc2Cl)c(C)c1CN(C)CC(O)COc1ccc(Cl)cc1 (stereo not given)
inactive

Identify the outcome logged in this assay for the compound shown: Cc1cccc(OCC(O)CNC(C)(C)C)c1C (stereo not given)
inactive

Identify the outcome logged in this assay for the compound shown: NC(Cc1c[nH]c2ccccc12)C(=O)NC(CCC(=O)O)C(=O)O (stereo not given)
inactive

Identify the outcome logged in this assay for the compound shown: CC[C@@]1(c2ccccc2)NC(=O)N(C)C1=O
inactive

Identify the outcome logged in this assay for the compound shown: CC1CCN(CCCC(=O)c2ccc(F)cc2)CC1
inactive

Identify the outcome logged in this assay for the compound shown: CC(C)NC[C@@H](O)COc1ccc(CC(N)=O)cc1
inactive

Identify the outcome logged in this assay for the compound shown: COC(=O)c1c(-c2ccc(Cl)cc2)noc1N1CCN(c2ccccc2OC)CC1
inactive

Identify the outcome logged in this assay for the compound shown: CC1(C)CC(=O)c2c(C(F)(F)F)nn(-c3ccc(C(N)=O)c(NC4CCC(OC(=O)CN)CC4)c3)c2C1 (stereo not given)
active

Identify the outcome logged in this assay for the compound shown: O=C(O)CCCC[P+](c1ccccc1)(c1ccccc1)c1ccccc1
inactive

Identify the outcome logged in this assay for the compound shown: O=c1cc[nH]c(=O)[nH]1
inactive

Identify the outcome logged in this assay for the compound shown: CC(=O)N[C@@H](CS)C(=O)O
inactive

Identify the outcome logged in this assay for the compound shown: Cc1cc2c(cc1S(N)(=O)=O)S(=O)(=O)CCC2
inactive
